# ASSAY SYSTEM: T1, Human GHR-Fc-10x His (extracellular region of human growth hormone receptor fused to human Fc) (human, UniProt P10912 50-256)
# T1 construct: Captured by its 10x His-tag on a Ni-NTA sensor chip for SPR; not shown: human Fc domain of vector pAB1200 with its linker; 10x His-tag replacing the AviTag
# T1 sequence (looked up): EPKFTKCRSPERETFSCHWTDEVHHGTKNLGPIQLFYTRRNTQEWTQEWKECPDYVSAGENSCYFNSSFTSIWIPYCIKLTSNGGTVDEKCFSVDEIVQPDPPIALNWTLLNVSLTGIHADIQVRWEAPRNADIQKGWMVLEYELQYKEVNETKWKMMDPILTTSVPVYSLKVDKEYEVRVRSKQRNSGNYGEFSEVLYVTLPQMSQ
# METHOD SUMMARY: SPR, GHR-Fc-10xHis captured on Ni-NTA chip, Fab as analyte, 1:1 fit
pKd: −log10 of the molar value.
Below is a list of entries, each paired with its recorded pKd value.

| BINDER | RESULT MODIFIER | pKd |
| --- | --- | --- |
| GHR14 Fab (Fab, V domains shown, Fab) VH: EVQLVESGGGLVQPGGSLRLSCAASGFNISSSYIHWVRQAPGKGLEWVASISSYYGYTSYADSVKGRFTISADTSKNTAYLQMNSLRAEDTAVYYCARSYGSYYGYYHYWEWYGLDYWGQGTLVTVSS VL: DIQMTQSPSSLSASVGDRVTITCRASQSVSSAVAWYQQKPGKAPKLLIYSASSLYSGVPSRFSGSRSGTDFTLTISSLQPEDFATYYCQQWQYWSPVTFGQGTKVEIKR | = | 8.15 |
| GHR10 Fab (Fab, V domains shown, Fab) VH: EVQLVESGGGLVQPGGSLRLSCAASGFNFSYYSIHWVRQAPGKGLEWVASISSYYGSTSYADSVKGRFTISADTSKNTAYLQMNSLRAEDTAVYYCARTEYSFGMYWAHTGMDYWGQGTLVTVSS VL: DIQMTQSPSSLSASVGDRVTITCRASQSVSSAVAWYQQKPGKAPKLLIYSASSLYSGVPSRFSGSRSGTDFTLTISSLQPEDFATYYCQQFWSSEPITFGQGTKVEIKR | = | 8.82 |
| GHR3 Fab (Fab, V domains shown, Fab) VH: EVQLVESGGGLVQPGGSLRLSCAASGFNVSYYSIHWVRQAPGKGLEWVAYISPSYGSTSYADSVKGRFTISADTSKNTAYLQMNSLRAEDTAVYYCARGYWGGGYWPYHAFDYWGQGTLVTVSS VL: DIQMTQSPSSLSASVGDRVTITCRASQSVSSAVAWYQQKPGKAPKLLIYSASSLYSGVPSRFSGSRSGTDFTLTISSLQPEDFATYYCQQYYTSLLTFGQGTKVEIKR | > | 9.00 |
| GHR8 Fab (Fab, V domains shown, Fab) VH: EVQLVESGGGLVQPGGSLRLSCAASGFNISYSSIHWVRQAPGKGLEWVASIYSSYGSTYYADSVKGRFTISADTSKNTAYLQMNSLRAEDTAVYYCARSYIYSQPGFYYDSYALDYWGQGTLVTVSS VL: DIQMTQSPSSLSASVGDRVTITCRASQSVSSAVAWYQQKPGKAPKLLIYSASSLYSGVPSRFSGSRSGTDFTLTISSLQPEDFATYYCQQYGSWLITFGQGTKVEIKR | = | 8.49 |
| GHR9 Fab (Fab, V domains shown, Fab) VH: EVQLVESGGGLVQPGGSLRLSCAASGFNVSYSSIHWVRQAPGKGLEWVASISSSYGSTYYADSVKGRFTISADTSKNTAYLQMNSLRAEDTAVYYCARYYDYSWSTYKGIGTGAIDYWGQGTLVTVSS VL: DIQMTQSPSSLSASVGDRVTITCRASQSVSSAVAWYQQKPGKAPKLLIYSASSLYSGVPSRFSGSRSGTDFTLTISSLQPEDFATYYCQQYWYSYLITFGQGTKVEIKR | > | 9.00 |

Origin of values: patent US20250179200A1
